These entries and their values trace back to PubChem BioAssay (NCI).

Tested on: MALME-3M melanoma
Assay: NCI tumour cell line growth inhibition, 48 h
OBSERVABLE: log10(TGI) (log10 of the value in µM)
Scale type: logarithmic (base 10). Underlying TGI unit: µM.

Examples from the recorded data:
MOLECULE: COc1ccc(OC)c(CC(=O)c2ccc(O)c(C(=O)NCCc3ccc(F)cc3)c2)c1
log10(TGI): 0.84
--
MOLECULE: O=C1c2cccnc2-c2nc(-c3ccccc3)cc3c2c1nc1ccccc13
log10(TGI): 1.21
--
MOLECULE: COC(=O)c1c(OC(C)=O)ccc2c1c1c(n2Cc2ccccc2)C(=O)c2ccccc2C1=O
log10(TGI): 1.71
--
MOLECULE: C=C1C(=O)OC2C3C(=C)[C@@H](OC(C)=O)CC3C(C)=CC(OC(=O)C(C)(O)C(C)OC(C)=O)[C@@H]12 (stereo partly drawn)
log10(TGI): 1.31

Query (molecule): "Brc1ccc(C2(N3CCCCC3)CCCCC2)s1" ; field requested: log10(TGI)
1.97

---

Tested on: HL-60(TB) leukemia
Test: NCI tumour cell line growth inhibition, 48 h
OBSERVABLE: TGI

COMPOUND: C/C(O)=C/c1nc2sc(C)c(C)c2c(=O)s1
VALUE: > 100 µM
--
COMPOUND: CN(Cc1cnc2nc(N)nc(N)c2n1)c1ccc(C(=O)NC2CCCCC2)cc1
VALUE: > 100 µM
--
COMPOUND: COc1cccc(C2C3=C(COC3=O)N(CCO)c3cc4c(cc32)CCC4)c1 (stereo unspecified)
VALUE: 0.314 µM
--
COMPOUND: O=C(CCl)Nc1ccc(-c2nc3ccccc3s2)cc1
VALUE: 5.73 µM
--
COMPOUND: CC(C)=CCC/C(C)=C/CC/C(C)=C/C(O)c1ccccc1 (stereo unspecified)
VALUE: 43.8 µM
--
COMPOUND: CCOC(=O)CC(=O)Nc1c(C(=O)OCC)sc2nc(SC)nc(Nc3ccc(OC)c(OC)c3)c12
VALUE: > 100 µM
--
COMPOUND: COc1ccc(/C=N/Nc2nc3ccccc3c(=O)n2-c2ccccc2)cc1
VALUE: > 100 µM
--
COMPOUND: O=C(CC(C(=O)c1ccsc1)c1cccs1)c1ccsc1 (stereo unspecified)
VALUE: > 100 µM
--
COMPOUND: c1cc(-c2ccc(Oc3ccc(-c4ccncc4)cc3)cc2)ccn1
VALUE: 11.1 µM
--
COMPOUND: Fc1cccc(C=NC23CC4CC(CC(C4)C2)C3)c1
VALUE: > 100 µM

In the following, a different compound is considered.
Any idea what its TGI is? The compound is "O=C1C2=Cc3ccccc3CCN2c2ccc([N+](=O)[O-])cc21"
> 100 µM

---

Form field: TGI (one value per entry).
System: HS 578T breast
Experiment: NCI tumour cell line growth inhibition, 48 h

Known results for compounds:
COMPOUND: N#CCCN(CCC#N)c1ccc(/C=C2\N=C(c3ccccc3)N(NC(=O)c3ccncc3)C2=O)cc1
VALUE: > 100 µM

COMPOUND: CCOC(=O)/C(C#N)=N\Nc1ccc(-n2c(C)nc3ccc(Br)cc3c2=O)cc1
VALUE: > 100 µM

COMPOUND: CC(=O)NC1C(OCc2ccccc2)OC(CO)C(O)C1OCC(=O)NC(C)C(=O)NC(CCC(=O)Nc1ccc2c(c1)CN1C(=O)c3ccccc3C1=N2)C(N)=O (centres undefined)
VALUE: > 100 µM

COMPOUND: OCC1OC(NC(=S)NCSCCC(F)(F)C(F)(F)C(F)(F)C(F)(F)C(F)(F)C(F)(F)F)C(O)C(O)C1O (centres undefined)
VALUE: > 100 µM

COMPOUND: O=C(Nc1ccc(Cl)cc1)C(=O)C1=C(O)c2ccccc2OC1
VALUE: > 100 µM

Could you share which TGI value was measured for "O=C1Nc2ccccc2/C1=C\c1c(Cl)[nH]c2ccccc12" ?
2.57 µM

Do the same for "CN(C)c1ccc(C=Nc2ccc(-c3nc4ccccc4o3)cc2)cc1" please
> 100 µM

Please give the result for COC(=O)Oc1nn(C(=O)OC)c(=O)c2ccccc12 (tested in a mixture with another compound) too.
> 100 µM

For "NC(=NCc1ccccc1)N/N=C\c1ccnc2ccccc12" then?
49.4 µM
